system: ACVR1B; details: concentration: 1 μM, replicates: in singlicate; n = 1;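 further: KINOMEscan kinase panel screen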
Answer each item with its documented %Inh.
Express your answer in %, writing the number without its unit.

Suppose we examine the compound Nc1n[nH]c2nnc(-c3ccccc3)c(-c3ccccc3)c12 [GW554060] ; what %Inh value has been reported?
0

Suppose we examine the compound CCS(=O)c1ccc(-c2coc3ccc(-c4nnc(C)o4)cc23)cc1 (centres unmarked) ; what %Inh value has been reported?
0

Suppose we examine the compound Cc1cccc(-c2nc(Nc3ccc4c(cnn4C)c3)c3ccccc3n2)n1 [GW876731] ; what %Inh value has been reported?
64

Suppose we examine the compound "CCC(=O)c1c(-c2ccccc2)c2cc(Cl)ccc2c(=O)n1Cc1cc(S(C)(=O)=O)n(CC(N)=O)n1" ; what %Inh value has been reported?
0

Suppose we examine the compound "Cn1c(=O)c(F)c(Nc2ccc(I)cc2F)c2c(=O)n(OC[C@H](O)CO)cnc21" ; what %Inh value has been reported?
0

Suppose we examine the compound "CCc1ccc(-c2ccc3c(c2)-c2nn(C)cc2S(=O)(=O)N3C)cc1" ; what %Inh value has been reported?
0

Suppose we examine the compound O=C(NCc1cccs1)c1cc(C(=O)c2c(Cl)cccc2Cl)c[nH]1 [GW823670] ; what %Inh value has been reported?
12

Suppose we examine the compound O=c1cc(N2CCOCC2)nc2n(Cc3ccc(F)c(Cl)c3)ccn12 [GSK2297099] ; what %Inh value has been reported?
0

Suppose we examine the compound COc1cccc(C2=C(N(C)c3ccccc3)C(=O)NC2=O)c1 [SB-334865] ; what %Inh value has been reported?
0

Suppose we examine the compound Cc1ccccc1COc1cc(-n2cnc3cc(Cl)ccc32)sc1C(N)=O [GW813349] ; what %Inh value has been reported?
0

Suppose we examine the compound COc1cc(Nc2nccc(N3CCC(NC(=O)C4COc5ccccc5O4)C3)n2)cc(OC)c1OC (centres unmarked) [GSK1379761] ; what %Inh value has been reported?
0

Suppose we examine the compound COc1ccc(Nc2nccc(N3CCC(NS(=O)(=O)c4ccc(NC(C)=O)cc4)C3)n2)cc1 (centres unmarked) [GSK1379729] ; what %Inh value has been reported?
3

Suppose we examine the compound "COc1ccc(-c2cc3c(C)nc(N)nc3n([C@H]3CC[C@H](O)CC3)c2=O)cn1" ; what %Inh value has been reported?
0

Suppose we examine the compound O=C(NCCNc1ccnc(Nc2ccc(F)cc2)n1)Nc1ccc2c(c1)OCO2 [GSK1379882] ; what %Inh value has been reported?
0

Suppose we examine the compound "CCCNC(=O)Nc1ccc(Oc2ncnc3ccn(C)c23)cc1" ; what %Inh value has been reported?
13

Suppose we examine the compound "CCC(=O)c1c(-c2ccccc2)c2cc(Cl)ccc2c(=O)n1Cc1ccc(C(=O)O)cc1" ; what %Inh value has been reported?
0

Suppose we examine the compound O=C1NC(=O)C(c2ccccc2)=C1Nc1cccc(O)c1 [SB-390534] ; what %Inh value has been reported?
0

Suppose we examine the compound COc1cc2ncn(-c3cc(OCc4ccncc4Br)c(C(N)=O)s3)c2cc1OC [GW854278] ; what %Inh value has been reported?
9

Suppose we examine the compound Cc1nnc(-c2ccc3ncn(-c4ccc(S(C)=O)cc4)c3c2)o1 (centres unmarked) ; what %Inh value has been reported?
15

Suppose we examine the compound C[C@@H]1CC[C@H](C(=O)NC2CCCCC2)CN1c1cc(-c2ccc3c(N)n[nH]c3c2)nc(N)n1 [GSK2291363] ; what %Inh value has been reported?
0
